- protocol: Pharmacokinetic evaluation in rats
- Type: in vivo
- condition: rat, plasma, po; SD rats, IG 10 mg/kg
measured_parameter: Cmax (ng/mL)
Quick note: give the figure in ng/mL, leave out the unit.

Find the recorded Cmax belonging to Nc1ncccc1-c1nc2ccc(-c3cccc(N4CCC(N5CCCC5=O)CC4)c3F)nc2n1-c1ccc(C2(N)CCC2)cc1 [Compound 30] and report it.
31.2

Find the recorded Cmax belonging to CC(=O)N1CC2(C1)CN(c1cccc(-c3ccc4nc(-c5cccnc5N)n(-c5ccc(C6(N)CCC6)cc5)c4n3)c1F)C2 [Compound 28] and report it.
32.6

----------
- protocol: Pharmacokinetic evaluation in mice
- Assay type: in vivo
- condition: mouse, plasma, po; ICR mice, IG 10 mg/kg; read-out: MRT(0-t)
A collection of compounds and their measured MRT last
Quick note: give the figure in h, leave out the unit.

Below are worked cases with known answers.
CC(=O)N1CC2(C1)CN(c1cccc(-c3ccc4nc(-c5cccnc5N)n(-c5ccc(C6(N)CCC6)cc5)c4n3)c1F)C2 | 5.28
Nc1ncccc1-c1nc2ccc(-c3cccc(N4CCC(N5CCCC5=O)CC4)c3F)nc2n1-c1ccc(C2(N)CCC2)cc1 | 5.01
CN1CC2(CCN(c3cccc(-c4ccc5nc(-c6cccnc6N)n(-c6ccc(C7(N)CCC7)cc6)c5n4)c3F)CC2)CC1=O | 3.95

Find the recorded MRT last belonging to CC(=O)N1CC2(CCN(c3cccc(-c4ccc5nc(-c6cccnc6N)n(-c6ccc(C7(N)CCC7)cc6)c5n4)c3F)CC2)C1 and report it.
3.58

----------
- protocol: Pharmacokinetic evaluation in mice
- Assay type: in vivo
- condition: mouse, plasma, po; ICR mice, IG 10 mg/kg
measured_parameter: Cmax (ng/mL)
Quick note: give the figure in ng/mL, leave out the unit.

Below are worked cases with known answers.
CC(=O)N1CC2(CCN(c3cccc(-c4ccc5nc(-c6cccnc6N)n(-c6ccc(C7(N)CCC7)cc6)c5n4)c3F)CC2)C1 | 4960
Nc1ncccc1-c1nc2ccc(-c3cccc(N4CCC(N5CCCC5=O)CC4)c3F)nc2n1-c1ccc(C2(N)CCC2)cc1 | 542
CC(=O)N1CC2(C1)CN(c1cccc(-c3ccc4nc(-c5cccnc5N)n(-c5ccc(C6(N)CCC6)cc5)c4n3)c1F)C2 | 140

Next up:
Find the recorded Cmax belonging to CN1CC2(CCN(c3cccc(-c4ccc5nc(-c6cccnc6N)n(-c6ccc(C7(N)CCC7)cc6)c5n4)c3F)CC2)CC1=O and report it.
4020

----------
A collection of molecules and their measured AUC(0-inf)
- protocol: Pharmacokinetic evaluation in rats
- Assay type: in vivo
- condition: rat, plasma; SD rats, IV 1 mg/kg
Quick note: give the figure in ng·h/mL, leave out the unit.

Nc1ncccc1-c1nc2ccc(-c3cccc(N4CCC(N5CCCC5=O)CC4)c3F)nc2n1-c1ccc(C2(N)CCC2)cc1 | 139

Find the recorded AUC(0-inf) belonging to CC(=O)N1CC2(C1)CN(c1cccc(-c3ccc4nc(-c5cccnc5N)n(-c5ccc(C6(N)CCC6)cc5)c4n3)c1F)C2 and report it.
174

----------
- protocol: Pharmacokinetic evaluation in mice
- Assay type: in vivo
- condition: mouse, plasma, po; ICR mice, IG 10 mg/kg
A collection of molecules and their measured AUC(0-t)
Quick note: give the figure in ng·h/mL, leave out the unit.

Below are worked cases with known answers.
CN1CC2(CCN(c3cccc(-c4ccc5nc(-c6cccnc6N)n(-c6ccc(C7(N)CCC7)cc6)c5n4)c3F)CC2)CC1=O [Compound 45] | 14500
Nc1ncccc1-c1nc2ccc(-c3cccc(N4CCC(N5CCCC5=O)CC4)c3F)nc2n1-c1ccc(C2(N)CCC2)cc1 [Compound 30] | 2770
CC(=O)N1CC2(CCN(c3cccc(-c4ccc5nc(-c6cccnc6N)n(-c6ccc(C7(N)CCC7)cc6)c5n4)c3F)CC2)C1 [Compound 44] | 25000

Next up:
Find the recorded AUC(0-t) belonging to CC(=O)N1CC2(C1)CN(c1cccc(-c3ccc4nc(-c5cccnc5N)n(-c5ccc(C6(N)CCC6)cc5)c4n3)c1F)C2 [Compound 28] and report it.
871

----------
- Test system: LNcap cells
- protocol: Inhibitory effect on proliferation of LNcap cells (CCK-8, 72 h)
- Assay type: cell-based
- condition: Homo sapiens, LNcap cells, CCK-8, read-out: LNcap cells IC50
Please respond with yes when measured IC50 is strictly beneath 10 nM, and with no in all other cases.

Please review the entries below; each comes with its answer.
C=CC(=O)NCc1cccc(-c2ccc3nc(-c4cccnc4N)n(-c4ccc(C5(N)CCC5)cc4)c3n2)c1 | no
CC(=O)N1CC2(CCN(c3cccc(-c4ccc5nc(-c6cccnc6N)n(-c6ccc(C7(N)CCC7)cc6)c5n4)c3F)C2)C1 | no
CC(=O)N1C[C@@H]2CN(c3cccc(-c4ccc5nc(-c6cccnc6N)n(-c6ccc(C7(N)CCC7)cc6)c5n4)c3F)C[C@@H]2C1 | no
CC1CN(c2cccc(-c3ccc4nc(-c5cccnc5N)n(-c5ccc(C6(N)CCC6)cc5)c4n3)c2F)CCC1N1CCCC1=O (centres unmarked) | yes
CN1CC2(CC1=O)CN(c1cccc(-c3ccc4nc(-c5cccnc5N)n(-c5ccc(C6(N)CCC6)cc5)c4n3)c1)C2 | no

For the next question, use this compound.
Answer whether the compound Nc1ncccc1-c1nc2ccc(-c3cccc(N4CCC(N5CCCC5=O)CC4)c3F)nc2n1-c1ccc(C2(N)CCC2)cc1 has IC50 strictly less than 10 nM
yes

----------
- protocol: Pharmacokinetic evaluation in mice
- Format: in vivo
- condition: mouse, plasma, po; ICR mice, IG 10 mg/kg
measured_parameter: AUC(0-inf) (ng·h/mL)
Quick note: give the figure in ng·h/mL, leave out the unit.

Nc1ncccc1-c1nc2ccc(-c3cccc(N4CCC(N5CCCC5=O)CC4)c3F)nc2n1-c1ccc(C2(N)CCC2)cc1 | 2880
CC(=O)N1CC2(CCN(c3cccc(-c4ccc5nc(-c6cccnc6N)n(-c6ccc(C7(N)CCC7)cc6)c5n4)c3F)CC2)C1 | 25100
CN1CC2(CCN(c3cccc(-c4ccc5nc(-c6cccnc6N)n(-c6ccc(C7(N)CCC7)cc6)c5n4)c3F)CC2)CC1=O | 14500

Next up:
Find the recorded AUC(0-inf) belonging to CC(=O)N1CC2(C1)CN(c1cccc(-c3ccc4nc(-c5cccnc5N)n(-c5ccc(C6(N)CCC6)cc5)c4n3)c1F)C2 and report it.
896

----------
A collection of compounds and their measured IC50
- Test system: LNcap cells
- protocol: Inhibitory effect on proliferation of LNcap cells (CCK-8, 72 h)
- Type: cell-based
- condition: Homo sapiens, LNcap cells, CCK-8, read-out: LNcap cells IC50
Quick note: give the figure in nM, leave out the unit.

Find the recorded IC50 belonging to Nc1ncccc1-c1nc2ccc(-c3cccc(N4CCCS4(=O)=O)c3)nc2n1-c1ccc(C2(N)CCC2)cc1 [Compound 20] and report it.
15

Find the recorded IC50 belonging to CC(=O)N(C)C1CCCN(c2cccc(-c3ccc4nc(-c5cccnc5N)n(-c5ccc(C6(N)CCC6)cc5)c4n3)c2)C1 (stereo not shown) [Compound 27] and report it.
20

Find the recorded IC50 belonging to [2H]C1([2H])CC(N2CCCC2=O)CC([2H])([2H])N1c1cccc(-c2ccc3nc(-c4cccnc4N)n(-c4ccc(C5(N)CCC5)cc4)c3n2)c1F [Compound 38] and report it.
11

Find the recorded IC50 belonging to CN1CC2(CCN(c3cccc(-c4ccc5nc(-c6cccnc6N)n(-c6ccc(C7(N)CCC7)cc6)c5n4)c3F)CC2)CC1=O [Compound 45] and report it.
1.7

----------
A collection of molecules and their measured AUC(0-inf)
- protocol: Pharmacokinetic evaluation in mice
- Assay type: in vivo
- condition: mouse, plasma; ICR mice, IV 1 mg/kg
Quick note: give the figure in ng·h/mL, leave out the unit.

CC(=O)N1CC2(C1)CN(c1cccc(-c3ccc4nc(-c5cccnc5N)n(-c5ccc(C6(N)CCC6)cc5)c4n3)c1F)C2 | 253
CN1CC2(CCN(c3cccc(-c4ccc5nc(-c6cccnc6N)n(-c6ccc(C7(N)CCC7)cc6)c5n4)c3F)CC2)CC1=O | 4340
CC(=O)N1CC2(CCN(c3cccc(-c4ccc5nc(-c6cccnc6N)n(-c6ccc(C7(N)CCC7)cc6)c5n4)c3F)CC2)C1 | 4840

Next up:
Find the recorded AUC(0-inf) belonging to Nc1ncccc1-c1nc2ccc(-c3cccc(N4CCC(N5CCCC5=O)CC4)c3F)nc2n1-c1ccc(C2(N)CCC2)cc1 and report it.
482

----------
- Test system: LNcap cells
- protocol: Inhibitory effect on proliferation of LNcap cells (CCK-8, 72 h)
- Format: cell-based
- condition: Homo sapiens, LNcap cells, CCK-8, read-out: LNcap cells IC50
A collection of compounds and their measured pIC50
For clarity, pIC50 is expressed as the negative log10 of concentration in mol/L.

CC#CC(=O)N1CCCC1c1cccc(-c2ccc3nc(-c4cccnc4N)n(-c4ccc(C5(N)CCC5)cc4)c3n2)c1 (centres unmarked) | 7.80

Next up:
Find the recorded pIC50 belonging to [2H]C([2H])([2H])N(C(C)=O)C1CCN(c2cccc(-c3ccc4nc(-c5cccnc5N)n(-c5ccc(C6(N)CCC6)cc5)c4n3)c2F)CC1 and report it.
8.68
